# System: Human papillomavirus type 1a E7 protein (residues 1-88)
# method_description: HPV1a E7 small-molecule binders, primary screen, biochemical, small-molecule microarray, residues 1-88, 635 nm (AID 1129)
# assay_conditions: small-molecule microarray binding, fluorescence 635 nm; higher = more signal
composite z-score overview
Lab note: record the figure alone, no unit after it.

// solved cases for composite z-score follow
chem_smiles: O=C1[C@H]2[C@H]3[C@H](O)[C@H](O)CC(=NOC[C@@H](O)COCc4ccco4)[C@@H]3CC[C@H]2C(=O)N1Cc1ccccc1
composite z-score: 1.26

chem_smiles: CO[C@@H]1[C@H](O)CO[C@H]1C=Cc1ccccc1
composite z-score: 0.219

chem_smiles: CCCNC(=O)OC[C@H]1O[C@H](CCON=C2c3cc(OC)ccc3O[C@H](c3cccc(OC)c3)[C@H]2O)C=C[C@@H]1Oc1ccc(OC)cc1
composite z-score: 0.824

# evaluate next
**Query** Given the compound CC(=O)OC[C@H]1O[C@H](CC=NO[C@@H](C)c2cc(-c3c(C)cc(C)cc3C)no2)C=C[C@@H]1OC(C)=O , what is its reported composite z-score?
**Result** -0.375

* * *

# method_description: small-molecule microarray binders of probe aNog, primary screen, biochemical, biotinylated probe, 635/667 nm fluorescence (AID 1115);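 further: probe is biotinylated aNog protein used at 0.15 µg/mL for 1 h at 4 C; z-score combines 667 nm fluorescence of each spot with its signal to noise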
# assay_conditions: higher = more signal
Response key: satisfied means composite z-score >= -0.08; not satisfied means composite z-score < -0.08.

Check out these entries, answers already filled in.
molecule: O=C1C2=CC[C@H]3C(=O)N(Cc4ccccc4)C(=O)[C@H]3[C@H]2[C@H](O)[C@@H]2O[C@H]12
class_label: not satisfied

molecule: CC(C)=CCCC(C)=CCON=C1C[C@@H](O)[C@@H](O)[C@@H]2[C@@H]3C(=O)N(Cc4ccc5c(c4)OCO5)C(=O)[C@@H]3CC[C@@H]12
class_label: satisfied

molecule: CC(CCN1CCc2nc(-c3ccccc3)c(-c3ccccc3)cc2C1)=NO[C@@H](C)c1cc(-c2c(C)cc(C)cc2C)no1
class_label: satisfied

**Query** // inclusive: composite z-score at least -0.08? input: CO[C@H]1COC(=O)CCC[C@H](C)[C@@H](OC)COC(=O)CC=C[C@@H]1C
**Result** not satisfied

**Query** // inclusive: composite z-score at least -0.08? input: CC=CC1=C(CO)[C@H](O)[C@H]2O[C@H]2[C@@H]1O
**Result** not satisfied

**Query** // inclusive: composite z-score at least -0.08? input: O=C1C=C[C@@H](O)[C@@H]2[C@@H]3C(=O)N(C4CCCCC4)C(=O)[C@@H]3CC[C@@H]12
**Result** not satisfied

**Query** // inclusive: composite z-score at least -0.08? input: CCOC(=O)[C@H](Cc1ccccc1)NC(=O)CCC1CC(OC(=O)NCCc2ccc(F)cc2)CC2(CCCC(COC(=O)NCCC(C)C)O2)O1 (stereo partly specified)
**Result** satisfied

**Query** // inclusive: composite z-score at least -0.08? input: CCOC(=O)[C@H](CC(C)C)NC(=O)CCC1CC(OC(=O)NCCc2ccc(F)cc2)CC2(CCCC(COC(=O)NCc3cccc(C(F)(F)F)c3)O2)O1 (stereo partly specified)
**Result** satisfied

**Query** // inclusive: composite z-score at least -0.08? input: COCC#Cc1ccc([C@@H]2N[C@H](C(=O)O)CC[C@H]2C)cc1
**Result** not satisfied

**Query** // inclusive: composite z-score at least -0.08? input: COc1cccc([C@H](O)Cn2cc(-c3ccc(CON=C(C)C)cc3)nn2)c1
**Result** not satisfied

**Query** // inclusive: composite z-score at least -0.08? input: Cc1ccc(S(=O)(=O)N[C@@H]2COC(=O)CC=C[C@@H](C)[C@H](NS(=O)(=O)c3ccc(C)cc3)COC(=O)[C@H](C)NC(=O)CC=C[C@H]2C)cc1
**Result** satisfied

// data source = PubChem BioAssay
